The reported measurements were obtained from paper PMC9358681.

- systemTested: human A2BAR (Homo sapiens)
- Construct: host or cells: CHO-spap
- experimentNotes: [3H]PSB-603 competition association assay
- Type: binding
- assayContext: read-out: Kinetic KD (koff/kon)
Returns: string. Value is Criterion met if measured Kd is below 9 nM, and Criterion not met if it is greater than or equal to it.

Example entries and their recorded answers appear below.
Lab note: confirm whether the reported Kd for this molecule is below 9 nM, equality not counting. molecule: CCCn1c(=O)c2[nH]c(-c3ccc(OCC(=O)N[C@@H](C)c4ccccc4)cc3)nc2n(CCC)c1=O
Criterion met

Lab note: confirm whether the reported Kd for this molecule is below 9 nM, equality not counting. molecule: CCCn1c(=O)c2[nH]c(-c3ccc(OCC(=O)Nc4ccc(C)cc4)cc3)nc2n(CCC)c1=O
Criterion met

Lab note: confirm whether the reported Kd for this molecule is below 9 nM, equality not counting. molecule: CCCn1c(=O)c2[nH]c(-c3ccc(OCC(=O)Nc4ccc([N+](=O)[O-])cc4)cc3)nc2n(CCC)c1=O
Criterion not met

Lab note: confirm whether the reported Kd for this molecule is below 9 nM, equality not counting. molecule: CCCn1c(=O)c2[nH]c(-c3ccc(OCC(=O)Nc4ccc(C(=O)OC)cc4)cc3)nc2n(CCC)c1=O
Criterion met

Lab note: confirm whether the reported Kd for this molecule is below 9 nM, equality not counting. molecule: CCCn1c(=O)c2[nH]c(-c3ccc(OCC(=O)N[C@H](C)c4ccccc4)cc3)nc2n(CCC)c1=O
Criterion met

Further cases:
Lab note: confirm whether the reported Kd for this molecule is below 9 nM, equality not counting. molecule: CCCn1c(=O)c2[nH]c(-c3ccc(OCC(=O)Nc4ccc(C(C)=O)cc4)cc3)nc2n(CCC)c1=O
Criterion met

Lab note: confirm whether the reported Kd for this molecule is below 9 nM, equality not counting. molecule: CCCn1c(=O)c2[nH]c(-c3ccc(OCC(=O)NCc4ccc(Br)cc4)cc3)nc2n(CCC)c1=O
Criterion met

Lab note: confirm whether the reported Kd for this molecule is below 9 nM, equality not counting. molecule: CCCn1c(=O)c2[nH]c(-c3ccc(OCC(=O)NCc4ccc(O)c(O)c4)cc3)nc2n(CCC)c1=O
Criterion not met

Lab note: confirm whether the reported Kd for this molecule is below 9 nM, equality not counting. molecule: CCCn1c(=O)c2[nH]c(-c3ccc(OCC(=O)Nc4ccc(C(=O)NC)cc4)cc3)nc2n(CCC)c1=O
Criterion not met

###

- systemTested: human A2BAR (Homo sapiens)
- Construct: host or cells: CHO-spap
- experimentNotes: [3H]PSB-603 displacement on CHO-spap-hA2BAR membranes
- Assay type: binding
- assayContext: […] [3H]PSB-603, 2 h, 25 °C; read-out: Ki (converted)
Readings of Ki for the listed compounds
I only need the number, in nM, no unit after it.

Recorded Ki, per entry:
Bench note: what Ki did CCCn1c(=O)c2[nH]c(-c3ccc(OCC(=O)N[C@H](C)c4ccccc4)cc3)nc2n(CCC)c1=O [Compound 24] show?
15.2

Bench note: what Ki did CCCn1c(=O)c2[nH]c(-c3ccc(OCC(=O)Nc4ccccc4)cc3)nc2n(CCC)c1=O [Compound 8] show?
1.93

Bench note: what Ki did CCCn1c(=O)c2[nH]c(-c3ccc(OCC(=O)Nc4ccc([N+](=O)[O-])cc4)cc3)nc2n(CCC)c1=O [Compound 14] show?
13.5

Bench note: what Ki did CCCn1c(=O)c2[nH]c(-c3ccc(OCC(=O)NC4CCCCC4)cc3)nc2n(CCC)c1=O [Compound 7] show?
951

Further cases:
Bench note: what Ki did CCCn1c(=O)c2[nH]c(-c3ccc(OCC(=O)Nc4ccc(C(=O)NC)cc4)cc3)nc2n(CCC)c1=O [Compound 18] show?
19.9

###

// each record: one item and its pKi for UniProtKB P25099
Sequence (P25099 whole entry): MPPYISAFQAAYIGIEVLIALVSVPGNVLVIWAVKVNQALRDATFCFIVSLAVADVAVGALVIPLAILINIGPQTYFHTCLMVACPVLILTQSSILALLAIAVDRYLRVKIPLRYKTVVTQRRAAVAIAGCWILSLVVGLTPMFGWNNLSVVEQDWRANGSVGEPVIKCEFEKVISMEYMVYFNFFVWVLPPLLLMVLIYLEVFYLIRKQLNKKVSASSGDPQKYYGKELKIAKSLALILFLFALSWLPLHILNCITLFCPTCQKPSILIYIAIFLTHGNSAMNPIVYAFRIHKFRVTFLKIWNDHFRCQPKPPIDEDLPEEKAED
Kindly note that pKi refers to -log10 of the concentration in mol/L and answer with the value alone.

Recorded pKi, per entry:
Request body: readout pKi, system UniProtKB P25099, query CCCn1c(=O)c2[nH]c(-c3ccc(OCC(=O)NC4CC4)cc3)nc2n(CCC)c1=O . Return the value.
7.97

Request body: readout pKi, system UniProtKB P25099, query CCCn1c(=O)c2[nH]c(-c3ccc(OCC(=O)NCc4ccc(Br)cc4)cc3)nc2n(CCC)c1=O . Return the value.
7.49

Request body: readout pKi, system UniProtKB P25099, query CCCn1c(=O)c2[nH]c(-c3ccc(OCC(=O)NCc4ccccc4)cc3)nc2n(CCC)c1=O . Return the value.
8.30

Further cases:
Request body: readout pKi, system UniProtKB P25099, query CCCn1c(=O)c2[nH]c(-c3ccc(OCC(=O)NC4CCCCC4)cc3)nc2n(CCC)c1=O . Return the value.
7.64

###

- systemTested: human A2BAR (Homo sapiens)
- Construct: host or cells: CHO-spap
- experimentNotes: [3H]PSB-603 displacement on CHO-spap-hA2BAR membranes
- Assay type: binding
- assayContext: Ki
measuredEndpoint: Ki

Bench note: what Ki did CCCn1c(=O)c2[nH]c(-c3ccc(OCC(=O)Nc4ccc(N=C=S)cc4)cc3)nc2n(CCC)c1=O show?
9.28 nM

###

// each record: one item and its pKi for A1 adenosine receptor (Homo sapiens)
Kindly note that pKi refers to -log10 of the concentration in mol/L and answer with the value alone.

Request body: readout pKi, system A1 adenosine receptor (Homo sapiens), query CCCn1c(=O)c2[nH]c(-c3ccc(OCC(=O)NCc4ccc(C)cc4)cc3)nc2n(CCC)c1=O [Compound 20] . Return the value.
6.67

Further cases:
Request body: readout pKi, system A1 adenosine receptor (Homo sapiens), query CCCn1c(=O)c2[nH]c(-c3ccc(OCC(=O)NCc4ccccc4)cc3)nc2n(CCC)c1=O [Compound 19] . Return the value.
7.26

Request body: readout pKi, system A1 adenosine receptor (Homo sapiens), query CCCn1c(=O)c2[nH]c(-c3ccc(OCC(=O)N[C@@H](C)c4ccccc4)cc3)nc2n(CCC)c1=O [Compound 25] . Return the value.
7.63

###

- systemTested: human A2BAR (Homo sapiens, UniProt P29275)
- Construct: host or cells: CHO-spap
- experimentNotes: [3H]PSB-603 association and dissociation experiments
- Format: binding
- assayContext: association and dissociation of […] [3H]PSB-603, 25 °C; read-out: Kinetic KD (koff/kon)
measuredEndpoint: pKd
Kindly note that pKd refers to -log10 of the concentration in mol/L and answer with the value alone.

Bench note: what pKd did CCCn1c(=O)[nH]c2nc(-c3ccc(S(=O)(=O)N4CCN(c5ccc(Cl)cc5)CC4)cc3)[nH]c2c1=O show?
9.11

###

- systemTested: human A2BAR (Homo sapiens)
- Construct: host or cells: CHO-spap
- Sequence (P29275 1-332): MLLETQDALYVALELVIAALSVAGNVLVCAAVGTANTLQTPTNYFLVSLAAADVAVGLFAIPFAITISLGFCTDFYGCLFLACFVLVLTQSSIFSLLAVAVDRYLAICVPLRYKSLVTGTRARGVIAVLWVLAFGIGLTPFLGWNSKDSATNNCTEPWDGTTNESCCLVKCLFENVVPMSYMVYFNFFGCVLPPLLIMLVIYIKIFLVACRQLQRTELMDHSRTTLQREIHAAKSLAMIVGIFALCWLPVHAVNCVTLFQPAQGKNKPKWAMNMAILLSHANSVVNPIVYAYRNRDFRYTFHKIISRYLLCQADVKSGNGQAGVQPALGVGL
- experimentNotes: [3H]PSB-603 competition association assay
- Type: binding
- assayContext: read-out: Kinetic KD (koff/kon)
measuredEndpoint: pKd
Kindly note that pKd refers to -log10 of the concentration in mol/L and answer with the value alone.

Recorded pKd, per entry:
Bench note: what pKd did CCCn1c(=O)c2[nH]c(-c3ccc(OCC(=O)NCc4ccc(C)cc4)cc3)nc2n(CCC)c1=O show?
7.92

Bench note: what pKd did CCCn1c(=O)c2[nH]c(-c3ccc(OCC(=O)NCc4ccc(F)cc4)cc3)nc2n(CCC)c1=O show?
8.42

Bench note: what pKd did CCCn1c(=O)c2[nH]c(-c3ccc(OCC(=O)NC(c4ccccc4)c4ccccc4)cc3)nc2n(CCC)c1=O show?
7.51

Kindly review the next molecule as well.
Bench note: what pKd did CCCn1c(=O)[nH]c2nc(-c3ccc(S(=O)(=O)N4CCN(c5ccc(Cl)cc5)CC4)cc3)[nH]c2c1=O show?
9.11
